Target: CYP1A1 (Homo sapiens, UniProt P04798)
Sequence (P04798 1-512): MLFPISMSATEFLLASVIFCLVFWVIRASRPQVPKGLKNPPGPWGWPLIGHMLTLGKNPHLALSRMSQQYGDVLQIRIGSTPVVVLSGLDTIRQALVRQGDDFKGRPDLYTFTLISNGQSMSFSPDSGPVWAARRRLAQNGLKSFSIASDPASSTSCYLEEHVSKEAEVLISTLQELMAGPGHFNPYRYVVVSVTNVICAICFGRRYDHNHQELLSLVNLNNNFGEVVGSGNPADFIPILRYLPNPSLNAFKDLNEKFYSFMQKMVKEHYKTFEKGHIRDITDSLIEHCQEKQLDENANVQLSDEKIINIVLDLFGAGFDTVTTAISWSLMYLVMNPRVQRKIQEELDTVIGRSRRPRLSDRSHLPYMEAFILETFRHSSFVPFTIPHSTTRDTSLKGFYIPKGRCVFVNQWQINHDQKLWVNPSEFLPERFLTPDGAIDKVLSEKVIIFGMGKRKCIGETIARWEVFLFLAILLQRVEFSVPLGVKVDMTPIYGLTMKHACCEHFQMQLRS
Assay: CYP1A1 inhibition in yeast microsomes
Assay type: biochemical
Settings: human, % inhibition of CYP1A1 at 10 μM (Mean ± SD) Sacchrosomes, 10 μM; Sacchrosomes
Endpoint: inhibition at 10 µM (%)
Express your answer in %, writing the number without its unit.

What value of inhibition at 10 µM has been reported for the following molecule? `COc1c(C(=O)C=Cc2cccnc2)c(O)c(OC)c2occc12`
97
